- Protocol: Pharmacokinetic test in mice (IV and PO)
- Format: in vivo, BALB/c mice
- Measurement context: BALB/c, mouse, plasma; mice, PO 5 mg/kg
Measured Tmax by item
Report as a plain number; the unit min is understood.

CC(F)(F)C(=O)N[C@@H]1CCCC(F)(F)[C@H]1N1Cc2ccc(-c3nnc(C(F)F)o3)cc2S1(=O)=O	30
O=C(N[C@@H]1COCC[C@H]1N1Cc2ccc(-c3nnc(C(F)F)o3)cc2S1(=O)=O)C(F)F	30
O=C(N[C@@H]1CCOC[C@H]1N1Cc2ccc(-c3nnc(C(F)F)o3)cc2S1(=O)=O)C(F)F	30
Cn1cc([C@@H]([C@H](O)c2ccccc2)N2Cc3ccc(-c4nnc(C(F)F)o4)cc3S2(=O)=O)cn1	60
O=S1(=O)c2cc(-c3nnc(C(F)F)o3)ccc2CN1[C@H](c1ccccn1)[C@H](O)c1ccc(F)cn1	60

**Q:** What value of measured Tmax is listed for CN(C)C(=O)N[C@@H]1CCCC[C@H]1N1Cc2ccc(-c3nnc(C(F)F)o3)cc2S1(=O)=O ?
**A:** 30

**Q:** What value of measured Tmax is listed for O=C(N[C@@H]1CCCC[C@H]1N1Cc2ccc(-c3nnc(C(F)F)o3)cc2S1(=O)=O)N1CCOCC1 ?
**A:** 15
